Tested on: NCI-H226
Assay: NCI tumour cell line growth inhibition, 48 h
Active and inactive are the calls of the source. No stated cut-off is given here; in the data, active = GI50 up to about 1.1 µM and inactive = higher.
Just give me one of these, please: active, inactive

Worked examples follow.
C=C1C(=O)C23CC1CCC2C12CO[C@@]3(O)[C@@H](O)C1C(C)(C)C=CC2=O (some centres undefined); inactive
CO[C@]12C[C@H](CNC(=O)c3ccc[nH]3)O[C@H]1NC(=O)N2; inactive

Qu. # outcome recorded in this test, key = `CC(=O)Nc1nc(O)c2nc(C=O)cnc2n1`
Ans. inactive

Qu. Could you please tell me the result logged for `Oc1nc2nc3ccccc3nc2nc1O` in this assay?
Ans. inactive

Qu. Fill in: this test's call for C=C(OC1C(C)=C2C(C1OC(=O)CCCCCCC)C(C)(OC(C)=O)CC(OC(=O)CCC)C1(O)C2OC(=O)C1(C)O)/C(C)=C/C (centres undefined) is ___
Ans. active

Qu. Short answer needed: outcome of this test for COC(=O)C1CC2(CCC1=O)Cc1ccccc1C2=O (centres undefined) ?
Ans. inactive

Qu. I'd appreciate the recorded outcome for `O=C(CNc1cccc([N+](=O)[O-])c1)Nn1c(-c2ccccc2)nc2ccccc2c1=O` from this test.
Ans. active

Qu. Record request — test call for Cc1ccc(S(=O)(=O)N/N=C(\c2nc3ccc([N+](=O)[O-])cc3nc2O)C(O)c2ccccc2Cl)cc1 (centres undefined)
Ans. inactive

====

Tested on: NCI-H522
Test: NCI tumour cell line growth inhibition, 48 h
Calls of active or inactive are those of the source. Cut-off read from the data, not from the text of the source: active = GI50 up to about 1.1 µM and inactive = higher.
Pick from active, inactive when you respond.

Consider the following illustrative entries.
CC(=O)NNc1nc(C)c(C(/C=C/c2ccc3c(c2)OCO3)=N/NC(=O)c2ccncc2)s1; inactive
Oc1nc2nc3ccccc3nc2nc1O; inactive

Qu. Check the results log: what was the call for `Cc1ccc(S(=O)(=O)NC(=O)Nc2nc[nH]n2)cc1` ?
Ans. inactive

Qu. Short answer needed: outcome of this test for `O=[N+]([O-])c1ccc(S(=O)(=O)Cc2ccccc2)c([N+](=O)[O-])c1` ?
Ans. active

Qu. Per the records of this test, what outcome belongs to `O=S(=O)(c1ccccc1)C(c1ccc2ccccc2n1)S(=O)(=O)c1ccccc1` ?
Ans. inactive

Qu. How did this test come out for Cc1ccc(S(=O)(=O)NCCCCC(N)C(=O)O)cc1 (stereo not given) ?
Ans. inactive

====

Tested on: SF-295
Assay: NCI tumour cell line growth inhibition, 48 h
The source made the active and inactive calls. Cut-off read from the data, not from the text of the source: active = GI50 up to about 1.1 µM and inactive = higher.
Mark one answer only. Choices: yes (1) = active, no (0) = inactive

O=C1[C@@H]2Cc3c([nH]c4ccccc34)C(C3CCCCC3)N2C(=O)[C@@H]2CCCN12 (stereo partly drawn); no (0)
CC1(C)CNCC(C)(OCc2ccccc2)C(=O)NC(C)(C)CNCC(C)(OCc2ccccc2)C(=O)N1 (stereo not drawn); no (0)
CCN(CC)C(=O)N1CN(c2ccccc2)C2(CCN(CCCSc3ccc(F)cc3)CC2)C1=O; no (0)

Qu. // outcome(item) with item = CC1(C)OC(C[C@]2(C#N)C[C@H](CCl)OC(C)(C)O2)C[C@@H](C[C@]2(C#N)C[C@H](CCl)OC(C)(C)O2)O1 (stereo partly drawn)
Ans. no (0)

Qu. Record lookup: outcome of this test for C/C(=N\[N+](C)(C)C)C(c1ccccc1)C1(c2ccccc2)C(c2ccccc2)=C1c1ccccc1 (stereo not drawn) ?
Ans. no (0)

Qu. Which outcome did this test record for the compound `NNC(=O)CC(=O)Nc1ccc(Cl)cc1` ?
Ans. no (0)

Qu. Record lookup: outcome of this test for C=C1CC2C(=O)N(c3ccccc3)C(=O)C2CC1n1[nH]c(=O)n(Cc2ccccc2)c1=O (stereo not drawn) ?
Ans. no (0)

====

Test system: SNB-75
Experiment: NCI tumour cell line growth inhibition, 48 h
Activity calls are given as the source filed them. No stated cut-off is given here; in the data, active = GI50 up to about 1.1 µM and inactive = higher.
Listed next: entries and their corresponding GI50.

CC(=O)NC1=C[C@@H]([C@H]2COC(C)(C)O2)OC1=O; > 100 µM (inactive)
Cc1oc2c(C)c3oc(=O)cc(C)c3cc2c1CNC(=O)[C@@H]1OCCOCCOCCOCCOCCOC1C(=O)O (stereo not given in full); > 100 µM (inactive)
COc1c2c(cc3c1-c1c(cc4c(c1OC)OCO4)C1OC3C(C)C1C)OCO2.COc1cc2c(c(OC)c1OC)-c1c(cc3c(c1OC)OCO3)C1OC2C(C)C1C (stereo not given); 33 µM (inactive)
C#CCn1c(=O)c2cccnc2n(CC#C)c1=O; > 100 µM (inactive)
Cc1ccc([N+](=O)[O-])cc1NC(=O)C(=O)C1CCC2=C(Sc3ccccc3N2)C1=O (stereo not given); > 100 µM (inactive)

Summary for this molecule, CC#CC1/C(=C\C(=O)OC)CCCC1O (stereo not given) : GI50 is > 100 µM (inactive)

For reference, reported GI50 for N#CC(NNC(=O)c1ccccc1O)c1cccc(O)c1 (stereo not given) stands at 1.7 µM (inactive)

The molecule listed as `N#Cc1c(N2CCCC2)ncn(Cc2ccccc2)c1=O` shows GI50 equal to > 100 µM (inactive)

Record summary for CSc1nc(NC2OCC(O)C(O)C2O)c(N)c(=O)[nH]1 (stereo not given) : reported GI50 = > 100 µM (inactive)

Reported GI50 ( COc1cc(CC2C(=O)OCC2[C@@H](OC(C)=O)c2ccc3c(c2)OCO3)c(Br)c(OC)c1OC (stereo not given in full) ) = 28.5 µM (inactive)

====

Test system: COLO 205
Assay: NCI tumour cell line growth inhibition, 48 h
Active and inactive are the calls of the source. Rule as the data show it: active = GI50 up to about 1.1 µM and inactive = higher.
observed-property: GI50

Known GI50 results, listed for orientation:
O=C(CNc1cccc([N+](=O)[O-])c1)Nn1c(-c2ccccc2)nc2ccccc2c1=O; 1.43 µM (inactive)
CC(=O)OC[C@@H](COC(=O)/C=C/c1ccc(O)cc1)OC1OC(CO)C(O)C(O)C1O (stereo partly drawn); > 100 µM (inactive)
CC(=O)Nc1nc(O)c2nc(C=O)cnc2n1; > 100 µM (inactive)
COc1ccc2c(=O)c3ccoc3[nH]c2c1; > 100 µM (inactive)
Cc1ccc2cccc(-c3cccc4ccccc34)c2n1; 23.7 µM (inactive)
O=C(O)C1CCCN1Cc1c[nH]c2ccccc12 (stereo not drawn); > 100 µM (inactive)
Cc1c(C)c2c(c(N)c1C#N)C(=O)N(O)C2=O; > 100 µM (inactive)
COc1c2c(cc3c1-c1c(cc4c(c1OC)OCO4)C1OC3C(C)C1C)OCO2.COc1cc2c(c(OC)c1OC)-c1c(cc3c(c1OC)OCO3)C1OC2C(C)C1C (stereo not drawn); > 100 µM (inactive)

Record `COc1ccc(Br)c(/C=N\c2cccc3cc(OC)c(OC)cc23)c1` . Reported GI50: 79.3 µM (inactive)

The compound listed as `O=[N+]([O-])c1cc(Cl)ccc1S(=O)(=O)c1cc(Cl)cc2c1NCCC2` shows GI50 equal to 99.8 µM (inactive)

====

Test system: UO-31
Test: NCI tumour cell line growth inhibition, 48 h
Calls of active or inactive are those of the source. Cut-off read from the data, not from the text of the source: active = GI50 up to about 1.1 µM and inactive = higher.
Answer with one of the outcomes Y = active, N = inactive

Qu. Fill in: this test's call for `Cc1nc2c(=O)n(-c3ccccc3)c3ccccc3c2o1` is ___
Ans. N

Qu. What is the recorded call for this compound in the test? C=C1C(C(O)C[C@H](C)C2O[C@@]3(CCCCO3)CCC2C)O[C@@H]2CCC3(CCC(/C=C/[C@@H](C)C4CC(C)=CC5(O4)O[C@H](C[C@](C)(O)C(=O)O)CCC5O)O3)OC2[C@@H]1O (stereo partly drawn)
Ans. Y

Qu. Just curious, what result did `CCCCCCCCCC[C@H](O)[C@H](O)CC[C@@H](O)[C@H]1CC[C@@H]([C@H]2CC[C@H](CCCCCCC[C@@H](O)CC3=C[C@H](C)OC3=O)O2)O1` get here?
Ans. N

Qu. What did this assay record as the result for COc1ccc(C2c3cc4c(cc3OC(NNS(=O)(=O)c3ccc(C)cc3)C2C)OCO4)cc1 (stereo not drawn) ?
Ans. N

====

GI50 listing for selected compounds.
Tested on: Hs-578T
Assay: NCI tumour cell line growth inhibition, 48 h
The source made the active and inactive calls. No stated cut-off is given here; in the data, active = GI50 up to about 1.1 µM and inactive = higher.

Below: 5 compounds and their reported GI50.
Cc1ccc([N+](=O)[O-])cc1NC(=O)C(=O)C1CCC2=C(Sc3ccccc3N2)C1=O (stereo not given); > 100 µM (inactive)
COc1ccc(/N=C2\C(=O)C3=C(OC(C)(C)CC3)c3ccccc32)cc1; 1.63 µM (inactive)
COc1c(OC)c(OC)c(-c2cc(=O)c3c(OC)c(OC)c(OC)c(OC)c3o2)c(OC)c1OC; 52.5 µM (inactive)
O=C(Nc1ccccc1C(=O)Nc1nccs1)c1ccccc1; 23.9 µM (inactive)
CC(=O)N1CCOC12N=NC(C)(C)O2 (stereo not given); > 100 µM (inactive)

Next:
Noted GI50 for COc1cccc(N2C(=O)CSC2c2cc(OC)c(OC)c(OC)c2)c1 (stereo not given) , tested on Hs-578T: 48.2 µM (inactive)
